- target: Aβ42 (Homo sapiens, UniProt P05067)
- Sequence (P05067 672-713): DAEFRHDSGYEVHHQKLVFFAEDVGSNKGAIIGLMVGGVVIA
- assay_details: Th-T (thioflavin-T) assay of Aβ42 aggregation
- Assay type: biochemical
- cond: column suffix _10; reading M5
endpoint_label: Th-T assay signal, mean of three wells (Fig. 7a)

>>> endpoint_result("C=C1CCC2C(C)(CCC=C(C)C)C(O)CCC2(C)C1Cc1c(OC)oc(CO)c(C)c1=O (centres unmarked) [Compound 12]")
0.3222
>>> endpoint_result("C=C1CCC2C(C)(CCC=C(C)C)C(O)CCC2(C)C1Cc1c(OC)oc(CO)c(C(=O)OC)c1=O (centres unmarked) [Compound 13]")
0.2448
>>> endpoint_result("C=C1CC[C@@H]2[C@](C)(CC[C@H]3O[C@H](C=C(C)C)C[C@@]23C)[C@@H]1Cc1c(OC)oc(CO)c(C(=O)OC)c1=O [Compound 21]")
0.2363

Give one value of Th-T assay signal, mean of three wells (Fig. 7a) per listed compound.
1. C=C1CC[C@@H]2[C@](C)(CC[C@H]3O[C@H](C=C(C)C)C[C@@]23C)[C@@H]1Cc1c(OC)oc(CO)c(C)c1=O [Compound 20]
2. C=C1CCC2C(C)(CCC=C(C)C)C(O)CCC2(C)C1Cc1c(OC)oc(C)c(C(=O)OC)c1=O (centres unmarked) [Compound 14]

Reply text:
1: 0.3535; 2: 0.2748

----------
Could you please report measured Th-T fluorescence, mean of three wells (Fig. 7a) for the items listed next?
- target: Aβ42 (Homo sapiens, UniProt P05067)
- assay_details: Th-T (thioflavin-T) assay of Aβ42 aggregation
- Type: biochemical
- cond: column suffix _10; measurement M25
One number for each entry.

// known answers, use as guide
>>> endpoint_result("C=C1CCC2C(C)(CCC=C(C)C)C(O)CCC2(C)C1Cc1c(OC)oc(CO)c(C)c1=O (centres unmarked)")
2.768
>>> endpoint_result("C=C1CC[C@@H]2[C@](C)(CC[C@H]3O[C@H](C=C(C)C)C[C@@]23C)[C@@H]1Cc1c(OC)oc(CO)c(C(=O)OC)c1=O")
0.2332
>>> endpoint_result("C=C1CCC2C(C)(CCC=C(C)C)C(O)CCC2(C)C1Cc1c(OC)oc(CO)c(C(=O)OC)c1=O (centres unmarked)")
0.2779
>>> endpoint_result("C=C1CCC2C(C)(CCC=C(C)C)C(O)CCC2(C)C1Cc1c(OC)oc(C)c(C(=O)OC)c1=O (centres unmarked)")
2.291

Please look at the following compound next.
Inquiry: Supply reported Th-T fluorescence, mean of three wells (Fig. 7a) belonging to this compound: `C=C1CC[C@@H]2[C@](C)(CC[C@H]3O[C@H](C=C(C)C)C[C@@]23C)[C@@H]1Cc1c(OC)oc(CO)c(C)c1=O`
Reply text: 3.454

----------
Record form. Attribute: Th-T fluorescence, mean of three wells (Fig. 7a). Fill in for each entry.
- target: Aβ42 (Homo sapiens, UniProt P05067)
- assay_details: Th-T (thioflavin-T) assay of Aβ42 aggregation
- Type: biochemical
- cond: reading M122; compound at 50 (head suffix _50)

Example entries begin here.
>>> endpoint_result("C=C1CC[C@@H]2[C@](C)(CC[C@H]3O[C@H](C=C(C)C)C[C@@]23C)[C@@H]1Cc1c(OC)oc(CO)c(C(=O)OC)c1=O")
0.493
>>> endpoint_result("C=C1CCC2C(C)(CCC=C(C)C)C(O)CCC2(C)C1Cc1c(OC)oc(CO)c(C)c1=O (centres unmarked)")
1.501
>>> endpoint_result("C=C1CCC2C(C)(CCC=C(C)C)C(O)CCC2(C)C1Cc1c(OC)oc(CO)c(C(=O)OC)c1=O (centres unmarked)")
0.4755
>>> endpoint_result("C=C1CC[C@@H]2[C@](C)(CC[C@H]3O[C@H](C=C(C)C)C[C@@]23C)[C@@H]1Cc1c(OC)oc(CO)c(C)c1=O")
2.114

Inquiry: Give Th-T fluorescence, mean of three wells (Fig. 7a) for C=C1CCC2C(C)(CCC=C(C)C)C(O)CCC2(C)C1Cc1c(OC)oc(C)c(C(=O)OC)c1=O (centres unmarked) tested on Aβ42 (Homo sapiens, UniProt P05067).
Reply text: 0.9934

----------
- target: Aβ42 (Homo sapiens)
- assay_details: Th-T (thioflavin-T) assay of Aβ42 aggregation
- Format: biochemical
- cond: column suffix _20; measurement M21
Provide the reported Th-T fluorescence, mean of three wells (Fig. 7a) of each item.
One number for each entry.

Here are 4 compounds together with their reported answers.
>>> endpoint_result("C=C1CC[C@@H]2[C@](C)(CC[C@H]3O[C@H](C=C(C)C)C[C@@]23C)[C@@H]1Cc1c(OC)oc(CO)c(C(=O)OC)c1=O [Compound 21]")
0.1975
>>> endpoint_result("C=C1CCC2C(C)(CCC=C(C)C)C(O)CCC2(C)C1Cc1c(OC)oc(CO)c(C(=O)OC)c1=O (centres unmarked) [Compound 13]")
0.1846
>>> endpoint_result("C=C1CCC2C(C)(CCC=C(C)C)C(O)CCC2(C)C1Cc1c(OC)oc(C)c(C(=O)OC)c1=O (centres unmarked) [Compound 14]")
1.235
>>> endpoint_result("C=C1CC[C@@H]2[C@](C)(CC[C@H]3O[C@H](C=C(C)C)C[C@@]23C)[C@@H]1Cc1c(OC)oc(CO)c(C)c1=O [Compound 20]")
3.265

Continue with the next compound.
Inquiry: Identify the reported Th-T fluorescence, mean of three wells (Fig. 7a) for the following entry. C=C1CCC2C(C)(CCC=C(C)C)C(O)CCC2(C)C1Cc1c(OC)oc(CO)c(C)c1=O (centres unmarked) [Compound 12]
Reply text: 2.5199

----------
- target: Aβ42 (Homo sapiens)
- assay_details: Th-T (thioflavin-T) assay of Aβ42 aggregation
- Assay type: biochemical
- cond: reading M118; compound at 20 (head suffix _20)
Assignment: determine reported Th-T fluorescence, mean of three wells (Fig. 7a) for the given compounds.

>>> endpoint_result("C=C1CCC2C(C)(CCC=C(C)C)C(O)CCC2(C)C1Cc1c(OC)oc(CO)c(C)c1=O (centres unmarked) [Compound 12]")
2.113
>>> endpoint_result("C=C1CC[C@@H]2[C@](C)(CC[C@H]3O[C@H](C=C(C)C)C[C@@]23C)[C@@H]1Cc1c(OC)oc(CO)c(C)c1=O [Compound 20]")
3.17
>>> endpoint_result("C=C1CC[C@@H]2[C@](C)(CC[C@H]3O[C@H](C=C(C)C)C[C@@]23C)[C@@H]1Cc1c(OC)oc(CO)c(C(=O)OC)c1=O [Compound 21]")
0.9478
>>> endpoint_result("C=C1CCC2C(C)(CCC=C(C)C)C(O)CCC2(C)C1Cc1c(OC)oc(C)c(C(=O)OC)c1=O (centres unmarked) [Compound 14]")
1.636

# evaluate next
Inquiry: Specify reported Th-T fluorescence, mean of three wells (Fig. 7a) for the compound shown: C=C1CCC2C(C)(CCC=C(C)C)C(O)CCC2(C)C1Cc1c(OC)oc(CO)c(C(=O)OC)c1=O (centres unmarked) [Compound 13]
Reply text: 1.031

----------
- assay_details: cytotoxicity in Drosophila DL1 cells
- Assay type: cell-based
- cond: Drosophila, DL1 cells, 0.2 µM, replicate 1, relative to DMSO 1%; read-out: % viability, viability 1
endpoint_label: viability at 0.2 µM (%)
Numbers only, in %.

Inquiry: Provide one value: measured viability at 0.2 µM of C=C1CCC2C(C)(CCC=C(C)C)C(O)CCC2(C)C1Cc1c(OC)oc(C)c(C)c1=O (stereo not shown)
Reply text: 191

----------
Task for the reader: assign each of the following molecules its reported Th-T fluorescence, mean of three wells.
- target: Aβ42 (Homo sapiens)
- assay_details: Th-T (thioflavin-T) assay of Aβ42 aggregation
- Format: biochemical
- cond: compound at 10; reading M53 of time course

Worked cases, Th-T fluorescence, mean of three wells given:
>>> endpoint_result("C=C1CC[C@@H]2[C@](C)(CC[C@H]3O[C@H](C=C(C)C)C[C@@]23C)[C@@H]1Cc1c(OC)oc(CO)c(C)c1=O")
3.449
>>> endpoint_result("C=C1CCC2C(C)(CCC=C(C)C)C(O)CCC2(C)C1Cc1c(OC)oc(CO)c(C)c1=O (centres unmarked)")
3.4353
>>> endpoint_result("C=C1CC[C@@H]2[C@](C)(CC[C@H]3O[C@H](C=C(C)C)C[C@@]23C)[C@@H]1Cc1c(OC)oc(CO)c(C(=O)OC)c1=O")
0.2826
>>> endpoint_result("C=C1CCC2C(C)(CCC=C(C)C)C(O)CCC2(C)C1Cc1c(OC)oc(CO)c(C(=O)OC)c1=O (centres unmarked)")
1.531

Inquiry: State measured Th-T fluorescence, mean of three wells of the molecule C=C1CCC2C(C)(CCC=C(C)C)C(O)CCC2(C)C1Cc1c(OC)oc(C)c(C(=O)OC)c1=O (centres unmarked) with Aβ42 (Homo sapiens).
Reply text: 2.545
